- assayProcedure: fission yeast growth modulation, primary screen, strain 972, OD600, 24 h, no modulator (AID 1090);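 also: basal condition with compound alone and no growth modifier present; test concentration not given here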
- cond: S. pombe 972 growth, higher = more signal, called active from +8 up or from −8 down
Give z-score for every item shown.
One number for each entry.

C=C(/C(=C/C[C@@H](OC(=O)c1ccncc1)c1ccc(CO)o1)c1cnc2ccccc2c1)C(C)C    -2.27
C=CCN1C(=O)[C@]2(O[C@H](CCn3cc(CCO)nn3)[C@@H]([Si](C)(C)c3ccc(OC)cc3)[C@@H]2C)c2cc(NC(=O)c3ccc(OC)cc3)ccc21    -1.22
COc1ccc([Si](C)(C)[C@H]2[C@H](CCO)O[C@@]3(C(=O)N(Cc4ccccc4)c4ccc(N5C(=O)c6cccc7cccc5c67)cc43)[C@@H]2C)cc1    1.11
COC(=O)Cn1c(C(=O)N2CCCC2)cc2c1C[C@H]1CN(C(=O)c3ccccc3)[C@@](Cc3ccccc3)(C(=O)OC)[C@@H]21    1.23
CO[C@H]1COC(=O)[C@@H](C)COC(=O)[C@H](Cc2ccccc2)NC(=O)CC=C[C@H]1C    -1.25

Respectfully, I request z-score for each entry included below.
1. O=C1c2ccccc2[C@](Cc2ccccc2I)(C(=O)NCC(F)(F)F)[C@H](c2ccc(CO)cc2)N1Cc1ccccc1C(F)(F)F
2. COc1ccc([Si](C)(C)[C@H]2[C@H](CCO)O[C@@]3(C(=O)N(Cc4ccc(N5CCCCC5=O)cc4)c4ccccc43)[C@@H]2C)cc1

Given back:
-1.15
-0.717

* * *

- Test system: Human papillomavirus type 1a E7 protein (residues 1-88)
- assayProcedure: HPV1a E7 small-molecule binders, primary screen, biochemical, small-molecule microarray, residues 1-88, 635 nm (AID 1129)
- cond: small-molecule microarray binding, fluorescence 635 nm; higher = more signal
Cut-off 0.3 on composite z-score, inclusive. At or above means Fulfilled; below means Not fulfilled.

Asked: hey, is composite z-score for this one >= 0.3? COC(=O)C(CC#Cc1ccc2c(c1)[C@]1(C(=O)N2)[C@H](C(=O)N2CCCCCCC2)[C@H]2C(=O)O[C@H](c3ccccc3)[C@H](c3ccccc3)N2[C@@H]1c1ccc(O)cc1)C(=O)OC
Given back: Not fulfilled

Asked: Entry CCCC[C@@H]1C[C@H]1[C@@H](NC(=O)c1ccccc1)c1ccccc1C(F)(F)F please
Given back: Fulfilled

Asked: What about O=[N+]([O-])c1ccc(C[n+]2ccc3ccc(O)cc3c2)o1 ?
Given back: Not fulfilled

* * *

- targetOrTestSystem: Torsin-1A (Homo sapiens) (UniProt O14656)
- Sequence (O14656 whole entry, looked up): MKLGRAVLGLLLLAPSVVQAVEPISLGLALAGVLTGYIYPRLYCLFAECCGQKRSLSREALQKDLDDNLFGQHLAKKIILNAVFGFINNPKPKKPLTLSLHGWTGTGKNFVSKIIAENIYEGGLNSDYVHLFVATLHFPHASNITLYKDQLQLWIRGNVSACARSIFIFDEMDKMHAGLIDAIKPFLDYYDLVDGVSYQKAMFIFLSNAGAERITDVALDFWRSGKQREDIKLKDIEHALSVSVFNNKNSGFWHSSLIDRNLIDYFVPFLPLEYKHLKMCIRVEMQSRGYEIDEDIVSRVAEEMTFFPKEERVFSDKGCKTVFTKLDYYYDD
- assayProcedure: torsin A binders from cell lysate, primary screen, small-molecule microarray, wild-type, 635/667 nm (AID 1149)
- cond: COS7 hTOR1A-WT lysate, 635 nm fluorescence, higher = more signal
measurementType: composite z-score
Numbers only.

Please review the entries below; each comes with its answer.
CC(C)N1CC=CC23O[C@@H]4/C=C\CCCOC(=O)C4[C@H]2C(=O)N(CCCCCO)[C@@H]3C1=O (stereo partly specified)    1.5
CCOC(=O)C1=CC[C@@H](c2ccc(-c3ccc(OCc4ccccc4)cc3)c(OC)c2)N(S(=O)(=O)c2ccc(C)cc2)[C@H]1c1ccccc1    0.277
C=CCC(OC(C)=O)[C@@H]1[C@@H](N(Cc2cc3ccccc3o2)C(=O)Cc2ccc(F)cc2)c2cc(OCCCO)ccc2N1C(=O)c1ccc(-c2ccccc2)cc1 (stereo partly specified)    -0.583

For each of the items listed, what is its composite z-score?
1. CO[C@H]1COC(=O)[C@@H](C)COC(=O)[C@H](Cc2ccccc2)NC(=O)CC=C[C@H]1C
2. NC(=O)NCC#Cc1ccc2c(c1)[C@]1(C(=O)N2)[C@H](c2ccccc2OCCO)N2[C@H](c3ccccc3)[C@H](c3ccccc3)OC(=O)[C@H]2[C@@H]1C(=O)N1CCN(c2ncccn2)CC1
3. C=C(C)[C@@H]1CC=C(C(O)C2C=CC3C(=O)NC(=O)C3N2Nc2ccccn2)CC1 (stereo partly specified)
4. CC(C)[Si](OCC[C@H]1O[C@]2(C(=O)N(Cc3ccccc3)c3ccccc32)[C@@H](C)[C@@H]1[Si](C)(C)O)(C(C)C)C(C)C
5. O=[N+]([O-])c1ccc(C[n+]2ccc3ccc(O)cc3c2)o1

Given back:
1. 0.268
2. 0.0759
3. 1.1
4. 0.399
5. 0.244

Batch lookup, composite z-score per entry.
1. CCOC(=O)C1=CCC(c2cccc3ccccc23)N(S(=O)(=O)c2ccc(C)cc2)C1 (stereo unspecified)
2. CC(=O)NCCCC[C@@H]1NC(=O)[C@H]2C[C@@H](C(=O)NCCCCCCN(C)C)[C@@H](c3cccc(OCCO)c3)N2C1=O
3. CCCCCCc1nc(-c2cc(C)c(OC)c(C)c2)cc2c1[Si](C(C)C)(C(C)C)O[C@H]2c1ccccc1

Given back:
[0.334, 1.37, -1.48]

* * *

- assayProcedure: E. coli acrAB mutant growth effects, primary screen, E. coli filamentation inducers, strain DRC39, OD650, 48 h (AID 1179);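 also: screen aims at cell division blockers that make cells filament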
- cond: E. coli DRC39 delta-acrAB growth, higher = more signal, called active from +8 up or from −8 down
Think of 0.5 as a floor: if z-score stands on it or above, it is rule met; beneath it, rule not met.

Asked: Check the entry C[N+](C)(C)CCCCNC(=O)[C@H]1C[C@H]2C(=O)NCC(=O)N2[C@H]1c1cccc(OCCO)c1 : does z-score equal or exceed 0.5?
Given back: rule not met

Asked: What about C=CCN(C(=O)C1N(c2ccc(CCO)cc2)C(=O)C2C(C(=O)O)C3C=CC21O3)C(C)(C)C (centres undefined) ?
Given back: rule met

Asked: Next molecule up: CC(=O)NCCCC[C@@H]1NC(=O)[C@H]2C[C@@H](C(=O)NCCCCCCN(C)C)[C@@H](c3cccc(OCCO)c3)N2C1=O
Given back: rule not met

Asked: Please answer likewise for CO[C@H]1O[C@H](CO)[C@@H](OC(=O)Nc2ccccc2)[C@H](OC(=O)Nc2ccc3c(c2)OCO3)[C@@H]1OC(=O)Nc1ccc2c(c1)OCO2
Given back: rule not met

Asked: Would you kindly repeat that for CC(C)(C)OC(=O)CC[C@@]1(C(=O)NCc2ccccc2)N=C(c2ccc(OCCCO)cc2)O[C@@H]1c1ccccc1 ?
Given back: rule met

Asked: Also need C=CCC(OC(C)=O)[C@@H]1[C@@H](N(Cc2ccc(-c3ccccc3)cc2)C(=O)c2ccc(C)cc2)c2cc(OCCCO)ccc2N1C(=O)c1ccc(-c2ccccc2)cc1 (some centres undefined) , thanks.
Given back: rule met

Asked: Here is the next molecule: O=C1O[C@@H](c2ccccc2)[C@@H](c2ccccc2)N2[C@@H](c3ccccc3OCCO)[C@]3(C(=O)Nc4ccc(C#CC5=CCCCC5)cc43)[C@@H](C(=O)O)[C@H]12
Given back: rule not met

Asked: Now give it for CCCNC(=O)[C@@H]1c2ccccc2C(=O)N(C2CCCCC2)[C@H]1c1ccc(CO)cc1 too.
Given back: rule met

Asked: And Cc1ccccc1C(O)C1C=CC2C(=O)N(c3ccccc3)C(=O)C2N1Nc1ccc(C#N)cc1 (centres undefined) ?
Given back: rule not met

Asked: Same read-out for C[C@]1(C(=O)NCc2ccccc2)c2ccccc2C(=O)N(Cc2cc(C(F)(F)F)cc(C(F)(F)F)c2)[C@H]1c1ccc(CO)cc1 ?
Given back: rule met

Asked: // query: C=CCC1=C[C@H]2[C@H]([C@@H]3C=C[C@]2(CC=C)C(=O)[C@]32CO2)[C@@]2(CO2)C1=O
Given back: rule met

Asked: Also [N-]=[N+]=NCc1ccccc1[C@H]1OC(c2ccc(OCCCO)cc2)=N[C@@]1(Cc1ccccc1N=[N+]=[N-])C(=O)NCc1ccccc1 , if possible.
Given back: rule not met

Asked: What do we get for CCOC(=O)C[C@H]1[C@H](OC(=O)c2cc3ccccc3oc2=O)[C@@H](NC(=O)c2ccc3ccccc3c2)c2cc(OCCCO)ccc2N1C(=O)c1ccc2ccccc2n1 ?
Given back: rule met

Asked: Follow-up entry: Cc1ccc(N2C(=O)c3ccccc3[C@](C)(C(=O)NCC(C)C)[C@@H]2c2ccc(CO)cc2)nc1
Given back: rule not met

* * *

- assayProcedure: MM1S cell viability effects, profiling panel, calcein-AM fluorescence, 48 h, basal (AID 1165);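 also: viability of MM1S multiple myeloma cells under basal unstimulated conditions; test concentration not given here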
- cond: higher = more signal
I'd appreciate it if you could supply z-score values for the items below.
One number for each entry.

Some solved entries appear below for comparison.
C=CCOC(=O)[C@@H]1[C@H]2C(=O)O[C@H](c3ccccc3)[C@H](c3ccccc3)N2[C@H](c2ccc(OCCOC(=O)[C@H]3C[C@H]4C(=O)N[C@@H](CCCCNC(C)=O)C(=O)N4[C@H]3c3ccc(O)cc3)cc2)[C@@]12C(=O)Nc1ccc(I)cc12    -0.989
Cc1ccc(S(=O)(=O)c2cc3oc2CC[C@@H](CO)NC(=O)N(C)Cc2cn(nn2)C[C@H](Cc2ccccc2)NC3=O)cc1    -0.971

Asked: Which z-score reading was recorded for the compound CCCCO[C@H]1C[C@H]2C(Br)=C[C@@]1(CO)C(=O)[C@]21CO1 ?
Given back: -0.997
